All values here come from paper PMC10397247.

Target: T1, 4H2888-AA
T1 chain: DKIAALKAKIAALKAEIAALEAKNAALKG
Test: two-hybrid library CCmax;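 further: natural log of median RNA to DNA barcode read ratio; higher means stronger binding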
Details: mean of both orientations
Lab note: cut-off is 2. Strictly less in interaction score is criterion met. Exactly 2 or more is criterion not met.

Binder: DENAALEAENAALEAKIAALKAEIAALEG [4H1193-AA]
Assigned class: criterion met
//
Binder: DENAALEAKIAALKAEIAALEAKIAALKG [4H1350-AA]
Assigned class: criterion not met
//
Binder: DEIAALEAENAALEAEIAALEAKIAALKG [4H134-AA]
Assigned class: criterion not met
//
Binder: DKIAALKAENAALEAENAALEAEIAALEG [4H2705-AA]
Assigned class: criterion met
//
Binder: DENAALEAKIAALKAKIAALKAKNAALKG [4H1392-AA]
Assigned class: criterion met
//
Binder: DENAALEAEIAALEAKIAALKAKIAALKG [4H1070-AA]
Assigned class: criterion met
//
Binder: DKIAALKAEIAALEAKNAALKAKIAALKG [4H2622-AA]
Assigned class: criterion met
//
Binder: DKIAALKAENAALEAKIAALKAKNAALKG [4H2736-AA]
Assigned class: criterion met
